pIC50: −log10 of the molar value.
Heads up, these molecules all have pIC50 values measured for Tyrosine-protein phosphatase non-receptor type 11 (Homo sapiens, UniProt Q06124).
MEASURE: pIC50

COMPOUND	MEASURE	REPORTED_MEASUREMENT
Cc1nc(N2CCC3(CC2)Cc2ncsc2[C@H]3N)c2ccnn2c1-c1cnn(C)c1C	pIC50	7.57
Cc1nc(N2CCC3(CC2)Cc2scnc2[C@H]3N)c2ccnn2c1-c1cnn(C)c1C	pIC50	6.94
Cc1ccc(F)c(-c2c(C)nc(N3CCC4(CC3)Cc3ncccc3[C@H]4N)c3ccnn23)c1	pIC50	7.96
Cc1nc(N2CCC3(CC2)Cc2scnc2[C@H]3N)c2ccnn2c1-c1ccccc1F	pIC50	7.66
